biological target: Multidrug and toxin extrusion protein 1 (Homo sapiens); assay: Substrate activity at MATE1 (unknown origin) expressed in HEK293 cells assessed as intrinsic clearance by measuring ratio of Vmax (maximum transport velocity) over Km measured per mg of protein by HPLC-MS/MS analysis; type: cell-based
Sequence (Q96FL8 whole entry): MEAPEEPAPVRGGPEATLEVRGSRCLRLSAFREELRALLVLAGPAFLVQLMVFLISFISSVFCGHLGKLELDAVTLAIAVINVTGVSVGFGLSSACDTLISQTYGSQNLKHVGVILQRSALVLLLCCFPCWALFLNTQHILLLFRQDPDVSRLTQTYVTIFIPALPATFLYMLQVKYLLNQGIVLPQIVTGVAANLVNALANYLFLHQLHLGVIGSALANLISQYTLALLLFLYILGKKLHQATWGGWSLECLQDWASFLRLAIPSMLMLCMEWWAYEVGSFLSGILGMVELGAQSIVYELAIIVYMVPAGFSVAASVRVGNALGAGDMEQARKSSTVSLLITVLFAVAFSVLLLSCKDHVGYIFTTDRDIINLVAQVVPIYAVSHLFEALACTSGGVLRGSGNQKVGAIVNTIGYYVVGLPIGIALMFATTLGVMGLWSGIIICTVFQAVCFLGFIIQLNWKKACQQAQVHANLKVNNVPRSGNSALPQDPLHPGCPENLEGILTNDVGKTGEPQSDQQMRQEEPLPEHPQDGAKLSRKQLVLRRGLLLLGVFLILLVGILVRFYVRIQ
// reported CL for each item listed
I only need the number, in µL/min, no unit after it.

Note to self: CL of CN(C)C(=O)Oc1cccc([N+](C)(C)C)c1 with Multidrug and toxin extrusion protein 1 (Homo sapiens) was 45.2

* * *

target: MATE1 (Homo sapiens); test: in vitro; conditions: HEK293 cells expressing MATE1
Sequence (Q96FL8 whole entry): as above
// reported uptake ratio at 1 min, 2.5 µM for each item listed

CN(C)CCc1c[nH]c2ccc(Cn3cncn3)cc12 [RIZATRIPTAN] = > 2
O=c1ncccn1[C@@H]1O[C@H](CO)[C@@H](O)[C@H]1O [ZEBULARINE] = < 2
NCCc1ccccc1 [PHENETHYLAMINE] = < 2
COc1ccc2[nH]cc(C[C@H](N)C(=O)O)c2c1 = < 2
CCN1CCCC1CNC(=O)c1cc(S(=O)(=O)CC)c(N)cc1OC (racemic) [AMISULPRIDE] = > 2

Below: the item to evaluate.
For CCC1(c2ccccc2)C(=O)NC(=O)NC1=O [PHENOBARBITAL] the molecule record lists uptake ratio at 1 min, 2.5 µM as < 2
